From: PubChem BioAssay (NCI)

- Test system: BT-549 breast
- assay_remarks: NCI tumour cell line growth inhibition, 48 h
experimental_readout: TGI

# molecule, TGI
data = [
    ("O=C1NC(=NCCc2ccccc2F)S/C1=C\\c1ccc2ncccc2c1", "> 25 µM"),
]

Record TGI per entry; entries follow.
1. COc1ccc(/C=C/c2cc(O)cc(OC3OC(CO)C(O)C(O)C3O)c2)cc1O (centres undefined)
2. C#CCNCC(=O)O
3. CC(/C=C/c1ccccc1)=N\NC(=S)N/N=C(C)/C=C/c1ccccc1

["> 100 µM", "> 100 µM", "56.7 µM"]

====

- Tested on: A549 NSCLC
- assay_remarks: NCI tumour cell line growth inhibition, 48 h
experimental_readout: TGI

# compound, tested_system, TGI
data = [
    ("COc1cccc(N2C(=N)/C(=C3\\Nc4ccccc4S3)CC2=O)c1", "A549 NSCLC", "> 100 µM"),
    ("Cc1cc(N(C)c2ccccc2)nc(N(C)c2ccccc2)n1", "A549 NSCLC", "> 100 µM"),
]

Next item in the queue.
Quick one: give measured TGI for C/C(=N\O)C1CC(CC(=O)O)C1(C)C (stereo not drawn)
> 100 µM
